All figures here come from patent US10577382B2.

# Measured On: CLK2 enzyme (Homo sapiens, UniProt P49760)
# Construct: purchased Thermo Fisher Scientific
# Sequence (P49760 whole entry): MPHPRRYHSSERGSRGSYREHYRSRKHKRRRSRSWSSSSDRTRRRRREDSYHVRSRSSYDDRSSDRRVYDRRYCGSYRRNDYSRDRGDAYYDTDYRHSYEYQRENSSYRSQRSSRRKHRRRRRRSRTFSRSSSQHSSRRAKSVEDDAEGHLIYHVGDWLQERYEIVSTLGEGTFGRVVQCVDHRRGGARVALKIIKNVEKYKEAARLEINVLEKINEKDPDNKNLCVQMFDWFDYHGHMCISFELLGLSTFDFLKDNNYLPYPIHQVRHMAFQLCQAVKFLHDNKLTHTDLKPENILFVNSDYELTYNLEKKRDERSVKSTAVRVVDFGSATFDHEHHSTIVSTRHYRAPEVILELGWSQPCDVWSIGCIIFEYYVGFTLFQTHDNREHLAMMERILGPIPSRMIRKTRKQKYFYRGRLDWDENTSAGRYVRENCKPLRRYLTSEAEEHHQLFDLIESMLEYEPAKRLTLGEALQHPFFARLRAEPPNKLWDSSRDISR
# Procedure Details: Measurement of CLK2 inhibitory activity (LANCE time-resolved fluorescence, ULight-labeled MBP peptide)
# Assay type: biochemical
# Test Conditions: compound 1 μM; ATP 1 mM; read-out: CLK2 activity inhibition ratio at compound concentration of 1 μM (ATP 1 mM)
# Protocol: A test compound dissolved in DMSO was added to a reaction solution (50 mM HEPES (pH: 7.5), 10 mM MgCl2, 1 mM EGTA, 2 mM DTT, 0.01% Tween 20, 0.01% BSA) containing a CLK2 enzyme (Thermo Fisher Scientific) and an ULight-labeled MBP peptide (PerkinElmer), and the mixture was then reacted at room temperature for 10 minutes. […] The inhibition ratio (%) of CLK2 by the test compound was calculated in accordance with the following expression. […]
Test Readout: inhibition at 1 µM (%)
Provide the reading as a plain figure in %.

Known results for compounds:
>  <Compound>
COc1nc2ncc(-n3ccc4ncc(C(C)O)nc43)cc2n1Cc1cccc(F)c1 (centres unmarked) [Example 161]

>  <inhibition at 1 µM (%)>
100

$$$$
>  <Compound>
COc1ncnc2ccn(-c3cnc4nc(C)n(Cc5cc(F)cc(F)c5)c4c3)c12 [Example 7]

>  <inhibition at 1 µM (%)>
100

$$$$

Note: attention shifts to another entry.
// compound COc1ncnn2ccc(-c3cnc4nc(C)n(Cc5nnc(C6(F)CC6)o5)c4c3)c12 [Example 283] , assay CLK2 enzyme (Homo sapiens, UniProt P49760), inhibition at 1 µM value: 100
